run description: Solubility in the crystallization solvent (for the supersaturability calculation)
Assay type: physicochemical
conditions: aqueous with cosolvent or surfactant or cyclodextrin; 10% methanol, about room temperature; read-out: solubility under the condition of crystallization
measured quantity: solubility
Report the figure along with its unit, number first.

Query :: Recorded solubility of Cc1oc2nc3c(c(NC(=O)CN4CCCC4=O)c2c1C)CCCC3 , please.
Result :: 410 µg/mL

* * *

run description: Solubility in the crystallization solvent (for the supersaturability calculation)
Format: physicochemical
conditions: aqueous with cosolvent or surfactant or cyclodextrin; 60% methanol, about room temperature; read-out: solubility under the condition of crystallization
measured quantity: solubility (mg/mL)
Give bare numbers, in mg/mL.

Query :: What does the record list as solubility for Cc1oc2nc3c(c(NC(=O)CN4CCCC4=O)c2c1C)CCCC3 ?
Result :: 28.1
